- procedure details: clinical
- condition label: human, plasma, intravenous, terminal half-life, Example 1, all 42 patients combined, 4-hour infusion 14 or 18 mg/m^2, mean ± standard deviation
measured attribute: half-life (h)
Lab book: enter the figure in h, no units written.

In: # lookup: half-life of C/C=C1\NC(=O)[C@H]2CSSCC/C=C/[C@H](CC(=O)N[C@H](C(C)C)C(=O)N2)OC(=O)[C@H](C(C)C)NC1=O
Out: 7.23

====

- procedure details: clinical
- condition label: human, plasma, intravenous, Clearance, All (N = 74), median
measured attribute: clearance (mL/min)
Lab book: enter the figure in mL/min, no units written.

In: # lookup: clearance of C/C=C1\NC(=O)[C@H]2CSSCC/C=C/[C@H](CC(=O)N[C@H](C(C)C)C(=O)N2)OC(=O)[C@H](C(C)C)NC1=O [FK228]
Out: 238
